Each recorded value in this set is attributed to the supplement of paper PMC9112550.

System: Escherichia coli TOP10
TEST_METHOD_NOTES: shrunken log2 fold change of peptide-encoding DNA abundance (4.5 h post-induction vs induction); higher = less antimicrobial activity (less host growth inhibition)
EXPERIMENTAL_SETUP: time post-induction: 4.5 h; library: site-saturation at positions 5, 18, 19, 20
EXPERIMENTAL_READOUT: shrunken log2 fold change
Numbers only.

// each sequence listed below needs its shrunken log2 fold change
1. RRIRGRPPRLPRPRPRPPDFPRP
2. RRIRERPPRLPRPRPRPCNNPRP
3. RRIRQRPPRLPRPRPRPTPTPRP
4. RRIRRRPPRLPRPRPRPRDRPRP
5. RRIRLRPPRLPRPRPRPWCSPRP

Reply:
[0.46, -0.768, 0.336, 0.713, -1.02]

Below are some sequences; for each one, tell me its shrunken log2 fold change.
1. RRIRTRPPRLPRPRPRPRNWPRP
2. RRIRKRPPRLPRPRPRPFLGPRP
3. RRIRQRPPRLPRPRPRPFCHPRP
4. RRIRTRPPRLPRPRPRPMSCPRP
5. RRIRVRPPRLPRPRPRPTHTPRP
6. RRIRFRPPRLPRPRPRPMDLPRP
7. RRIRKRPPRLPRPRPRPDLPPRP
8. RRIRVRPPRLPRPRPRPYGQPRP

Reply:
1. 0.325
2. 0.0561
3. 0.00489
4. -0.181
5. 0.0927
6. -0.161
7. 0.222
8. -0.0728

----------
Test system: Escherichia coli TOP10
TEST_METHOD_NOTES: shrunken log2 fold change of peptide-encoding DNA abundance (4.5 h post-induction vs induction); higher = less antimicrobial activity (less host growth inhibition)
EXPERIMENTAL_SETUP: time post-induction: 4.5 h; library: site-saturation at positions 5, 18, 19, 20
Please respond with reported shrunken log2 fold change for every item in the list.
Numbers only.

- RRIRLRPPRLPRPRPRPEINPRP: -0.0201
- RRIRRRPPRLPRPRPRPSSIPRP: -0.485
- RRIRNRPPRLPRPRPRPLSRPRP: -0.124

Give measured shrunken log2 fold change for every item shown.
1. RRIRPRPPRLPRPRPRPTFRPRP
2. RRIRDRPPRLPRPRPRPFGRPRP
3. RRIRSRPPRLPRPRPRPRTLPRP

Reply:
[0.0885, -0.0125, 0.128]

----------
Tested on: Escherichia coli TOP10
TEST_METHOD_NOTES: shrunken log2 fold change of peptide-encoding DNA abundance (4.5 h post-induction vs induction); higher = less antimicrobial activity (less host growth inhibition)
EXPERIMENTAL_SETUP: time post-induction: 4.5 h; library: site-saturation at positions 5, 18, 19, 20
EXPERIMENTAL_READOUT: shrunken log2 fold change

Answered cases to consult:
- RRIRDRPPRLPRPRPRPSGGPRP: 0.356
- RRIRGRPPRLPRPRPRPFCDPRP: 0.456
- RRIRSRPPRLPRPRPRPANWPRP: 0.343

Give shrunken log2 fold change for each of the items listed below.
1. RRIRGRPPRLPRPRPRPKTPPRP
2. RRIRLRPPRLPRPRPRPRCNPRP

Reply:
1. 1.73
2. -0.534

The following sequences each have a reported value; give each one's shrunken log2 fold change.
1. RRIRNRPPRLPRPRPRPMPTPRP
2. RRIRPRPPRLPRPRPRPFTIPRP
3. RRIRDRPPRLPRPRPRPDEHPRP
4. RRIRERPPRLPRPRPRPCNFPRP
5. RRIRNRPPRLPRPRPRPVGPPRP
6. RRIRQRPPRLPRPRPRPRWAPRP
7. RRIRLRPPRLPRPRPRPGYCPRP

Reply:
0.257
-0.0323
0.0279
-0.125
0.448
0.144
-0.416

Each sequence below has a reported value. Please supply its shrunken log2 fold change.
1. RRIRLRPPRLPRPRPRPPEFPRP
2. RRIRPRPPRLPRPRPRPFNQPRP
3. RRIRDRPPRLPRPRPRPKRDPRP

Reply:
[0.0526, -0.695, 0.145]

----------
Tested on: Escherichia coli TOP10
TEST_METHOD_NOTES: shrunken log2 fold change of peptide-encoding DNA abundance (4.5 h post-induction vs induction); higher = less antimicrobial activity (less host growth inhibition)
EXPERIMENTAL_SETUP: time post-induction: 4.5 h; library: site-saturation at positions 5, 18, 19, 20
EXPERIMENTAL_READOUT: shrunken log2 fold change
Answers are plain numbers.

* RRIRNRPPRLPRPRPRPWKFPRP | -0.0447
* RRIRQRPPRLPRPRPRPQWQPRP | 0.16

Provide shrunken log2 fold change values for the following items, in order.
1. RRIRNRPPRLPRPRPRPADPPRP
2. RRIRWRPPRLPRPRPRPCCIPRP

Reply:
-0.0809
0.0413

----------
Tested on: Escherichia coli TOP10
TEST_METHOD_NOTES: shrunken log2 fold change of peptide-encoding DNA abundance (4.5 h post-induction vs induction); higher = less antimicrobial activity (less host growth inhibition)
EXPERIMENTAL_SETUP: time post-induction: 4.5 h; library: site-saturation at positions 5, 18, 19, 20
Record form. Attribute: shrunken log2 fold change. Fill in for each entry.
Numbers only.

Reference set (5 entries):
* RRIRWRPPRLPRPRPRPADEPRP | 0.033
* RRIRARPPRLPRPRPRPRRKPRP | 0.644
* RRIRPRPPRLPRPRPRPAREPRP | 0.68
* RRIRIRPPRLPRPRPRPGITPRP | -0.182
* RRIRSRPPRLPRPRPRPPHTPRP | 0.159

I would be grateful if you could provide shrunken log2 fold change for each of the following entries.
1. RRIRTRPPRLPRPRPRPRHLPRP
2. RRIRSRPPRLPRPRPRPENIPRP
3. RRIRTRPPRLPRPRPRPIYCPRP
4. RRIRRRPPRLPRPRPRPQGKPRP
5. RRIRRRPPRLPRPRPRPEWFPRP
6. RRIRMRPPRLPRPRPRPNACPRP
7. RRIRMRPPRLPRPRPRPRVIPRP
8. RRIRERPPRLPRPRPRPPTCPRP

Reply:
0.318
-0.278
-0.233
0.0379
-0.159
0.0451
0.477
-0.0707

I'm hoping you can list shrunken log2 fold change for every sequence here, please.
1. RRIRQRPPRLPRPRPRPENQPRP
2. RRIRIRPPRLPRPRPRPTQTPRP

Reply:
0.128
0.0595

----------
System: Escherichia coli TOP10
TEST_METHOD_NOTES: shrunken log2 fold change of peptide-encoding DNA abundance (4.5 h post-induction vs induction); higher = less antimicrobial activity (less host growth inhibition)
EXPERIMENTAL_SETUP: time post-induction: 4.5 h; library: site-saturation at positions 5, 18, 19, 20
Respond with condition met for shrunken log2 fold change values of -0.02 and above, condition not met for values below.

Look over these answered cases.
- RRIRQRPPRLPRPRPRPCYKPRP: condition not met
- RRIRMRPPRLPRPRPRPMVNPRP: condition not met
- RRIRPRPPRLPRPRPRPDEYPRP: condition met
- RRIRDRPPRLPRPRPRPENKPRP: condition met
- RRIRNRPPRLPRPRPRPMAKPRP: condition met
- RRIRMRPPRLPRPRPRPFAYPRP: condition not met
- RRIRWRPPRLPRPRPRPKENPRP: condition met
- RRIRCRPPRLPRPRPRPRDTPRP: condition met
- RRIRCRPPRLPRPRPRPPYRPRP: condition not met
- RRIRPRPPRLPRPRPRPSDEPRP: condition not met

Task item: Entry `RRIRVRPPRLPRPRPRPWHIPRP` : is its shrunken log2 fold change no less than -0.02?
Reply: condition not met

Task item: Is shrunken log2 fold change at least -0.02? Consider `RRIRSRPPRLPRPRPRPWYQPRP`
Reply: condition not met

Task item: Quick check: does `RRIRSRPPRLPRPRPRPHCKPRP` have shrunken log2 fold change greater than or equal to -0.02?
Reply: condition not met

Task item: I'd appreciate it if you could say whether `RRIRERPPRLPRPRPRPEWVPRP` has shrunken log2 fold change at least equal to -0.02.
Reply: condition met

Task item: Has `RRIRTRPPRLPRPRPRPALSPRP` a recorded shrunken log2 fold change greater than or equal to -0.02?
Reply: condition not met

----------
Test system: Escherichia coli TOP10;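 also: peptides expressed intracellularly from a pBAD plasmid library in pooled LB shake-flask culture, induced with 0.3% L-arabinose, DNA abundance read by NGS, three biological replicates, DESeq2 with apeglm shrinkage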
TEST_METHOD_NOTES: shrunken log2 fold change of peptide-encoding DNA abundance (4.5 h post-induction vs induction); higher = less antimicrobial activity (less host growth inhibition)
EXPERIMENTAL_SETUP: time post-induction: 4.5 h; library: site-saturation at positions 5, 18, 19, 20
Quick rule: shrunken log2 fold change of at least -0.7 means 1, below that means -1.

* RRIRNRPPRLPRPRPRPYNNPRP | -1
* RRIRGRPPRLPRPRPRPAMAPRP | 1
* RRIRGRPPRLPRPRPRPRSAPRP | 1
* RRIRVRPPRLPRPRPRPLFHPRP | 1
* RRIRQRPPRLPRPRPRPHDKPRP | -1

Continue with the next sequence.
Task item: Does shrunken log2 fold change meet or surpass -0.7 for `RRIRARPPRLPRPRPRPGFAPRP` ?
Reply: 1
